- target: Synaptic vesicular amine transporter (Rattus norvegicus, UniProt Q01827)
- Sequence (Q01827 whole entry): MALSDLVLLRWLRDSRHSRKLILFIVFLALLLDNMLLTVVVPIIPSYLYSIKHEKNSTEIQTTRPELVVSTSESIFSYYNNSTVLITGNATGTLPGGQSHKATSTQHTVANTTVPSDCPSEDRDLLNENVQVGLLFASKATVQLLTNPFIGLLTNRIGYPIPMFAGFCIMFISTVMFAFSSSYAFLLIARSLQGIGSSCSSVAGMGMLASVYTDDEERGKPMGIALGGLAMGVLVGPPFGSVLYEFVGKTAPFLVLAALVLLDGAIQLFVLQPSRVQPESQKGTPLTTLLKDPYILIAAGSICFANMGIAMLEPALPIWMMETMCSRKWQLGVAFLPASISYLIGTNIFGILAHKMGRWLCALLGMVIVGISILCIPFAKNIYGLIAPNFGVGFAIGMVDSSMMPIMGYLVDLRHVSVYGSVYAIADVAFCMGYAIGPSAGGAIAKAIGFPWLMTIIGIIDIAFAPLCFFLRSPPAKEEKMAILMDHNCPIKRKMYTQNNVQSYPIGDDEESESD
- testMethodNotes: Inhibition constant against [3H]dihydrotetrabenazine binding to vesicular monoamine transporter-2 of rat synaptic vesicle membranes
pKi: −log10 of the molar value.
valueKind: pKi

Past entries and their recorded results:
>>> recordedresult("CN1C2CC=C(Cc3ccccc3)C1CC2 (stereo unspecified)")
"< 4.00"
>>> recordedresult("CN1C2CCC1[C@@H](Cc1ccccc1)C(=O)[C@H]2Cc1ccccc1")
"< 4.00"
>>> recordedresult("CN1C2CCC1[C@@H](Cc1ccccc1)C(O)[C@H]2Cc1ccccc1 (stereo in doubt; 7b)")
"< 4.00"
>>> recordedresult("CN1C2CCC1[C@@H](Cc1ccc(F)cc1)C[C@H]2Cc1ccc(F)cc1")
"< 4.00"
>>> recordedresult("CN1C2CCC1[C@@H](Cc1ccccc1)C(O)[C@H]2Cc1ccccc1 (stereo in doubt; 7a)")
"< 4.00"

Please state pKi for every molecule in the list that follows.
1. CN1C2CCC1[C@@H](Cc1ccccc1)C[C@H]2Cc1ccccc1
2. CN1C2CCC1[C@@H](Cc1ccc(F)cc1)C=C2Cc1ccc(F)cc1 (stereo partly specified)
3. CN1C2CCC1[C@@H](CCCc1ccccc1)C[C@H]2CCCc1ccccc1
4. COc1ccc(CC2=C[C@H](Cc3ccc(OC)cc3)C3CCC2N3C)cc1 (stereo partly specified)
5. CN1C2CCC1[C@H](Cc1ccccc1)CC2 (stereo partly specified)
6. COc1ccc(C[C@@H]2C[C@H](Cc3ccc(OC)cc3)C3CCC2N3C)cc1

1. < 4.00
2. 5.86
3. 5.40
4. 5.32
5. < 4.00
6. 5.41

The reported measurements were obtained from ChEMBL document CHEMBL1142843.
